B1: tRNA (parent)
chain: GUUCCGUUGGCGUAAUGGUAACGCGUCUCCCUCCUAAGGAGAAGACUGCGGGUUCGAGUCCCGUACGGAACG

Variants of: B1
Assay: yeast fitness relative to wild type (ratio to wild type); higher = fitter; tRNA-Arg(CCU), competitive growth, 37 C, YPD
Variants at the floor of the assay were thinned out.
// yeast fitness lookup, one value per entry
experimentalReadout: yeast fitness

- mutationList: "U3A C5G C29G A36C U53G"
  experimentalReadout: "yeast fitness"
  relationOperator: "≤"
  assayValue: 0.5
- mutationList: "U3G C31U"
  experimentalReadout: "yeast fitness"
  relationOperator: "="
  assayValue: 1
- mutationList: "U13C A37C U53C"
  experimentalReadout: "yeast fitness"
  relationOperator: "="
  assayValue: 0.599
- mutationList: "C11U A20U G39A G63A A70U"
  experimentalReadout: "yeast fitness"
  relationOperator: "≤"
  assayValue: 0.5
- mutationList: "G12C C29U"
  experimentalReadout: "yeast fitness"
  relationOperator: "="
  assayValue: 0.85
- mutationList: "G67C A69G"
  experimentalReadout: "yeast fitness"
  relationOperator: "="
  assayValue: 0.977
- mutationList: "U2C U28A G52A"
  experimentalReadout: "yeast fitness"
  relationOperator: "≤"
  assayValue: 0.5
- mutationList: "G51A U53G G58A"
  experimentalReadout: "yeast fitness"
  relationOperator: "≤"
  assayValue: 0.5
- mutationList: "U7A G25C C27G C31U A45U C62U U64C"
  experimentalReadout: "yeast fitness"
  relationOperator: "≤"
  assayValue: 0.5
- mutationList: "C4G A20C A40G G52C"
  experimentalReadout: "yeast fitness"
  relationOperator: "="
  assayValue: 0.6
- mutationList: "U19A C22G G23C C30G C34A C55U"
  experimentalReadout: "yeast fitness"
  relationOperator: "≤"
  assayValue: 0.5
- mutationList: "C4U U13C U26A G63C"
  experimentalReadout: "yeast fitness"
  relationOperator: "≤"
  assayValue: 0.5
- mutationList: "C24G G48A G58C"
  experimentalReadout: "yeast fitness"
  relationOperator: "="
  assayValue: 0.735
- mutationList: "U2G G6A C27U A36U C60G"
  experimentalReadout: "yeast fitness"
  relationOperator: "="
  assayValue: 0.526
- mutationList: "U3C A15C A36C U47A C62G"
  experimentalReadout: "yeast fitness"
  relationOperator: "≤"
  assayValue: 0.5
- mutationList: "C4G U8C U16A A21C C24G A45C G48A G67A"
  experimentalReadout: "yeast fitness"
  relationOperator: "="
  assayValue: 0.53
- mutationList: "A20U C24G C31A G58C"
  experimentalReadout: "yeast fitness"
  relationOperator: "="
  assayValue: 0.504
- mutationList: "C31A A40U C46A"
  experimentalReadout: "yeast fitness"
  relationOperator: "="
  assayValue: 0.555
- mutationList: "U13C A20C A40G"
  experimentalReadout: "yeast fitness"
  relationOperator: "≤"
  assayValue: 0.5
- mutationList: "G6A A40U U53A C61A A65U A69U"
  experimentalReadout: "yeast fitness"
  relationOperator: "="
  assayValue: 0.511
- mutationList: "C33G G67A"
  experimentalReadout: "yeast fitness"
  relationOperator: "="
  assayValue: 0.672
- mutationList: "G9C U16G U32C A37C"
  experimentalReadout: "yeast fitness"
  relationOperator: "≤"
  assayValue: 0.5
